Record form. Attribute: protein stability index. Fill in for each entry.
- Assay Name: protein stability index of a GFP-peptide fusion (GPS, HEK-293T) (PSI 1-6); higher = more stable;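 further: 24-mer peptide tiles fused after GFP, lentivirally expressed, FACS-sorted into six equal bins by GFP/DsRed ratio, decoded by Illumina sequencing, PSI is the read-weighted mean bin number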
- Protocol Conditions: treatment: DMSO; c terminus: a fixed tail appended

-- ask // protein stability index lookup, key: CMGAMSLFLPCLLCYPPAKGCLKL [SPRY1]
-- reply 2.8

-- ask What about LGKMLIGLAGYLSGYDGTFLFQKP [POMT2] ?
-- reply 2.65

-- ask What about CTSVNTIYDNAVQGLRRHEILQWV [LRRC59] ?
-- reply 2.3

-- ask What about LLLASGLVITDFFGHLINGAIAVF [PTGFR] ?
-- reply 3.29

-- ask What about PDARPHRRPHELLPVGGRLPGPTR [HAGHL] ?
-- reply 4.6

-- ask What about CHHLPVIRQLATSGRFIVIIPRTV [SMG5] ?
-- reply 2.52

-- ask What about ERKNAEMYKLSSEQFHEAASKMES [CHCHD6] ?
-- reply 4.83

-- ask What about EGAIVMARGRHVGSSETNLLQHLL [PYCR3] ?
-- reply 3.25

---

Record form. Attribute: protein stability index. Fill in for each entry.
- Assay Name: protein stability index of a GFP-peptide fusion (GPS, HEK-293T) (PSI 1-6); higher = more stable
- Protocol Conditions: treatment: DMSO; c terminus: native

-- ask // protein stability index lookup, key: GEVVTESQKEQRSELDKSSAHSY [PRPH]
-- reply 5.67

-- ask What about KIPGTGALASAAAAVSGSKAKAE [RTN2] ?
-- reply 5.34

-- ask What about QIKRKARNEGRNRRRQQVLPLKS [CDKL4] ?
-- reply 2.87

-- ask What about SESNSATVEEPPTDPIPEDEKKE [SMARCE1] ?
-- reply 5.58

-- ask What about ASVPKVETVKSDNKDDDIDIDAI [EIF5] ?
-- reply 5.59

-- ask What about DVTSLSSQLPDTPNSMVPSPVET [ISL2] ?
-- reply 4.24

-- ask What about QNLLGFTPEELHAILGVQPDTED [ETS2] ?
-- reply 4.78

-- ask What about WNDAPCDKTFLFICKRPYVPSEP [CD207] ?
-- reply 1.99

---

- Assay Name: protein stability index of a GFP-peptide fusion (GPS, HEK-293T) (PSI 1-6); higher = more stable
- Protocol Conditions: treatment: MLN4924 1 uM, 8 h; c terminus: a fixed tail appended
Record form. Attribute: protein stability index. Fill in for each entry.
# answer = number (no unit)

-- ask // protein stability index lookup, key: KGDRGLPLEGSAKGKVQAELSQPL [RBBP5]
-- reply 4.75

-- ask What about VIAKWDYTAQQDQELDIKKNERLW [NCK2] ?
-- reply 3.4

-- ask What about CSRFFIDFPDILEQQRKLETYLQN [TENT5C] ?
-- reply 2.24

-- ask What about PFGENAEFPADISSITEAVPSESE [NFE2L1] ?
-- reply 5.25

-- ask What about RPPFGAAAVPGTQLSPSPTPASQS [SNAP91] ?
-- reply 4.86

-- ask What about EDGMQCLQLKETLATQEPTDNQVR [DLC1] ?
-- reply 5.5

-- ask What about PGSILYSSSGDLADLENEDIFPEL [DLC1] ?
-- reply 4.77

-- ask What about SWLDVQVSNTYVKQKTSAALSTMG [TPD52L3] ?
-- reply 2.47

-- ask What about PQEFQKTVSTMYYLWMCSTLALLL [SCAMP3] ?
-- reply 2.77

-- ask What about MECQPESSISHRFHKDCASRVNNA [EHMT1] ?
-- reply 4.15

-- ask What about FESFPAGSTLIFYKYCDHENAAFK [TOR1AIP2] ?
-- reply 2.17

-- ask What about GILNRPPAPTATVPAPQPPVTKPL [ZNF207] ?
-- reply 4.57

-- ask What about RLFPYSQYYRWLNYGGVIKNYFQH [PRIM1] ?
-- reply 2.22

-- ask What about KPGKGADLSKPPCRKAKEIRKERK [ATE1] ?
-- reply 5.04

-- ask What about VDLSRILNEMRDQYEKMAEKNRKD [KRT17] ?
-- reply 3.76

-- ask What about LINTSDTVQHGAVYSLEPRLCGGK [SDE2] ?
-- reply 3.97

-- ask What about PMMEHEMGGHHPGADYPVDGLPDL [CTNNB1] ?
-- reply 5.24

-- ask What about LYYFRLAARSPQGLGASTAEISAR [PTPRD] ?
-- reply 2.33

-- ask What about TGEKPYQCNICGKCFSCNSNLHRH [ZNF263] ?
-- reply 4.52

-- ask What about ADISQMLVCTADGDIHLSPEEPAA [TAF7L] ?
-- reply 4.94

-- ask What about GLLQGTSAETSGGLLICLPREQAA [SEPHS2] ?
-- reply 3.29

-- ask What about SCTPRMNRRMVGPDVIPLPHIYGA [FAM189A2] ?
-- reply 2.27

-- ask What about RPLARPIKRGDILPPEKGREVAKE [RHOBTB1] ?
-- reply 4.97

-- ask What about RVEASHLTTSQERELGIRQRDEQL [FBF1] ?
-- reply 5.13

-- ask What about SVGSYLDTLADDVPGHQTPSDLDQ [LURAP1L] ?
-- reply 5.34

-- ask What about TLALQGTQGQEKMMMMGPKEEEQS [ZNF232] ?
-- reply 5.43

-- ask What about GVSPADMYRWKLSSHEPCSATCTT [ADAMTSL2] ?
-- reply 3.37

-- ask What about TVAASDPDTGDNARLTYSIVGNQV [PCDHGC5] ?
-- reply 4.31

-- ask What about GSEVYRMLREPAEPVAAEPKQSGS [PDLIM4] ?
-- reply 5.03

-- ask What about TISFLGCAIQMFSFLFLGCSHSFL [OR10K2] ?
-- reply 3.6

-- ask What about NHEEDAGVRCNTPAMGLQKKLRLN [LOXL2] ?
-- reply 4.5

-- ask What about NNFREYNLHRVAAHELGHSLGLSH [MMP1] ?
-- reply 3.01

-- ask What about GDLIEITDAKKREALYAQDPSTGC [KMT5A] ?
-- reply 4.86

-- ask What about GGKSGGIVISPFRLEELTNRLASL [CCDC6] ?
-- reply 2.69

-- ask What about IHKASATIIEPAGESDNPLRFTSG [INTS4] ?
-- reply 4.15

-- ask What about APSPSPVTPAQNNLLQPNFEAAFG [SNAP91] ?
-- reply 4.54

-- ask What about EAVAGAEGREAPALVAAGGAPEDD [DENND6A] ?
-- reply 5.74

-- ask What about FRTDPEAKVKLVFVEDQAVVETVF [ZSWIM9] ?
-- reply 2.5

-- ask What about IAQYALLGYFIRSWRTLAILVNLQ [SLC22A15] ?
-- reply 2.78

-- ask What about GSAAKLVCYFTNWAQYRQGEARFL [CHIT1] ?
-- reply 2.23

-- ask What about RHMREENLRLQRKLQREMERREAL [CCDC6] ?
-- reply 4.39
